# system: rat TRPA1 (Rattus norvegicus)
# Sequence (Q6RI86 whole entry): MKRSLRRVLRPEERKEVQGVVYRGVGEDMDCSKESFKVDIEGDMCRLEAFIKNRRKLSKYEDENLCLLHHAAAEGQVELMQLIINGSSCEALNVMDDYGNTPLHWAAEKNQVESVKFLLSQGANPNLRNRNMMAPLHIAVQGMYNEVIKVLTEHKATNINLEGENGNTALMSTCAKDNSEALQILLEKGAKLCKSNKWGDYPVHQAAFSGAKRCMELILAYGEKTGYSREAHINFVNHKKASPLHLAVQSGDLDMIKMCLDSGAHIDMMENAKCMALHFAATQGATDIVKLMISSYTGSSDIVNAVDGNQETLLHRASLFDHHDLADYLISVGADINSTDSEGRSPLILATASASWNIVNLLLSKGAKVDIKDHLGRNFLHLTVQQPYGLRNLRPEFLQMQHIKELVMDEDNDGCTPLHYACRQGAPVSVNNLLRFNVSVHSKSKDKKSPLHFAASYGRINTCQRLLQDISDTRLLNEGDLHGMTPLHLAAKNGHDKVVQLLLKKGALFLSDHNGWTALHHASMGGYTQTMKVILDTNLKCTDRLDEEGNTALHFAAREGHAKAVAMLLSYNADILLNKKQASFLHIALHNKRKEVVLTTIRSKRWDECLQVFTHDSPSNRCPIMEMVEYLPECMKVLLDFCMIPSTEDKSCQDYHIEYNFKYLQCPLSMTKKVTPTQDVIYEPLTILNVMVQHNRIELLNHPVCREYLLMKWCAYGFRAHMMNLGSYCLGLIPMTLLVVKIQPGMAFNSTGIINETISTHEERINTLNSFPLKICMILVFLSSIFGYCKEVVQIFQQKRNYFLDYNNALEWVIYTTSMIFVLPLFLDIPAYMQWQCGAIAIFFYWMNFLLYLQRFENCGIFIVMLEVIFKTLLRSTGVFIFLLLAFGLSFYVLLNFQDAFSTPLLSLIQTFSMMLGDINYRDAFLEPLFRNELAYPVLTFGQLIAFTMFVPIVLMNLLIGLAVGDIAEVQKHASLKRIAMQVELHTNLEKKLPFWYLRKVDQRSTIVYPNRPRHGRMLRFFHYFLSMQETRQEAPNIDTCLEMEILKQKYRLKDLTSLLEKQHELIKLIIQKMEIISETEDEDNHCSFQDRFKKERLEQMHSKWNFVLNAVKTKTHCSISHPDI
# procedure_summary: Two-electrode voltage clamp of Xenopus oocytes expressing rat TRPA1
# Format: cell-based
# condition: EC50 for current activation at −100 mV, −100 mV; nominally Ca2+-free bath
So I've got a bunch of compounds here, and I need their pEC50 values.
Answers are plain numbers, as −log10 of the molar value.

# pEC50 (compound: O=C(O)c1cccnc1Nc1cccc(C(F)(F)F)c1 ) is 3.27

// next entry
Quick note, pEC50 for O=C(O)c1ccccc1Nc1cccc(C(F)(F)F)c1 landed at 3.83
